# TARGET UNDER TEST: human liver microsomal cytochrome P450 2E1 (CYP2E1) (Homo sapiens)
# Sequence (P05181 whole entry): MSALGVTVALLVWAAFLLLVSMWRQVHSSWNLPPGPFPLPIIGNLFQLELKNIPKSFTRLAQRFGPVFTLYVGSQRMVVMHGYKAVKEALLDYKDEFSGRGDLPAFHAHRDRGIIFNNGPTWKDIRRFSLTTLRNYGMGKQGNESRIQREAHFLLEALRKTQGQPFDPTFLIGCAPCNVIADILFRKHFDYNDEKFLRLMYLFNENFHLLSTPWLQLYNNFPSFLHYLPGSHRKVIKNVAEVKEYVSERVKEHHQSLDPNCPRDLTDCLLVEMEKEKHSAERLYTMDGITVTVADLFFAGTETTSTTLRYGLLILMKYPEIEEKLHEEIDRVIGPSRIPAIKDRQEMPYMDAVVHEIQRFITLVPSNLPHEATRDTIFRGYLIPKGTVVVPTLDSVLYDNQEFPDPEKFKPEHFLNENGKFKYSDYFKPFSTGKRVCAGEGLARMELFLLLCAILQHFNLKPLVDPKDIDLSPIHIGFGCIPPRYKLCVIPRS
# RUN DESCRIPTION: Human liver microsomal CYP2E1, chlorzoxazone 6-hydroxylation
# TEST CONTEXT: 66 μM
Parameter: Inhibition of CYP 2E1. Scope: all listed entries.
PROPERTY MEASURED: Inhibition of CYP 2E1

COMPOUND: COc1ccc([C@@H]2CC(=O)c3c(O)cc(O[C@@H]4O[C@H](CO)[C@@H](O)[C@H](O)[C@H]4O[C@@H]4O[C@@H](C)[C@H](O)[C@@H](O)[C@H]4O)cc3O2)cc1O
PROPERTY MEASURED: Inhibition of CYP 2E1
RECORDED RESULT: 58.70 ± 1.06%

COMPOUND: O=C(O[C@@H]1Cc2c(O)cc(O)cc2O[C@@H]1c1cc(O)c(O)c(O)c1)c1cc(O)c(O)c(O)c1 [(−)-Epigallocetechin-3-gallate]
PROPERTY MEASURED: Inhibition of CYP 2E1
RECORDED RESULT: 72.16 ± 1.02%

COMPOUND: C=C(C)C1CC=C(C)CC1 (single isomer, unassigned; (+)) [(+)-Limonene]
PROPERTY MEASURED: Inhibition of CYP 2E1
RECORDED RESULT: 63.64 ± 2.74%

COMPOUND: Oc1cc(O)c2c(c1)O[C@H](c1cc(O)c(O)c(O)c1)[C@H](O)C2 [(−)-Epigallocatechin]
PROPERTY MEASURED: Inhibition of CYP 2E1
RECORDED RESULT: 57.08 ± 1.85%

COMPOUND: COc1ccc(O)c(C(C)(C)C)c1 [Butylated hydroxyl anisol]
PROPERTY MEASURED: Inhibition of CYP 2E1
RECORDED RESULT: −85.5 ± 3.9%

COMPOUND: COc1ccc([C@@H]2CC(=O)c3c(O)cc(O[C@@H]4O[C@H](CO[C@@H]5O[C@@H](C)[C@H](O)[C@@H](O)[C@H]5O)[C@@H](O)[C@H](O)[C@H]4O)cc3O2)cc1O
PROPERTY MEASURED: Inhibition of CYP 2E1
RECORDED RESULT: 58.57 ± 3.78%

###

# TARGET UNDER TEST: CYP2E1 (Homo sapiens)
# Sequence (P05181 whole entry): as above
# RUN DESCRIPTION: in vitro
# TEST CONTEXT: human liver microsomes, pH 7.4, probe chlorzoxazone (6-hydroxylation)
Parameter: inhibition at 30 min, […]. Scope: all listed entries.

SMILES INPUT: OC[C@@H](O)[C@@H](O)[C@H](O)[C@@H](O)CO
inhibition at 30 min, […] [%]: 4.4

SMILES INPUT: OCc1ccccc1
inhibition at 30 min, […] [%]: 7.7

###

Parameter: Inhibition of CYP 2E1. Scope: all listed entries.
# TARGET UNDER TEST: human liver microsomal cytochrome P450 2E1 (CYP2E1) (Homo sapiens)
# RUN DESCRIPTION: Human liver microsomal CYP2E1, chlorzoxazone 6-hydroxylation;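 further: chlorzoxazone added as substrate, 6-hydroxychlorzoxazone formation quantified by LC/MS/MS after 30 min at 37 °C with NADP+ regenerating system, compared against solvent control without test sample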
# TEST CONTEXT: 33 μM

COMPOUND: C=C(C)C1CC=C(C)CC1 (single isomer, unassigned; (+)) [(+)-Limonene]
Inhibition of CYP 2E1 [%]: 38.05
--
COMPOUND: O=C(O[C@@H]1Cc2c(O)cc(O)cc2O[C@@H]1c1cc(O)c(O)c(O)c1)c1cc(O)c(O)c(O)c1 [(−)-Epigallocetechin-3-gallate]
Inhibition of CYP 2E1 [%]: 60.53
--
COMPOUND: COc1ccc([C@@H]2CC(=O)c3c(O)cc(O[C@@H]4O[C@H](CO)[C@@H](O)[C@H](O)[C@H]4O[C@@H]4O[C@@H](C)[C@H](O)[C@@H](O)[C@H]4O)cc3O2)cc1O
Inhibition of CYP 2E1 [%]: 48.96
--
COMPOUND: O=c1cc(-c2ccc(O)c(O)c2)oc2cc(O[C@@H]3O[C@H](CO)[C@@H](O)[C@H](O)[C@H]3O)cc(O)c12 [Luteolin-7-Glucoside]
Inhibition of CYP 2E1 [%]: 55.87
--
COMPOUND: Oc1cc(O)c2c(c1)O[C@@H](c1ccc(O)c(O)c1)[C@@H](O)C2 [(+)-Epicatechin]
Inhibition of CYP 2E1 [%]: 52.32
--
COMPOUND: COc1ccc(O)c(C(C)(C)C)c1 [Butylated hydroxyl anisol]
Inhibition of CYP 2E1 [%]: −47.1
--
COMPOUND: O=S(=O)([O-])NC1CCCCC1.[Na+] [Sodium cyclamate]
Inhibition of CYP 2E1 [%]: 1.7
--
COMPOUND: Oc1cc(O)c2c(c1)O[C@H](c1cc(O)c(O)c(O)c1)[C@H](O)C2 [(−)-Epigallocatechin]
Inhibition of CYP 2E1 [%]: 36.40
--
COMPOUND: COc1c(O)cc2oc(Oc3ccc(O)cc3)cc(=O)c2c1O
Inhibition of CYP 2E1 [%]: 46.22
--
COMPOUND: COc1ccc([C@@H]2CC(=O)c3c(O)cc(O[C@@H]4O[C@H](CO[C@@H]5O[C@@H](C)[C@H](O)[C@@H](O)[C@H]5O)[C@@H](O)[C@H](O)[C@H]4O)cc3O2)cc1O
Inhibition of CYP 2E1 [%]: 50.91

FYI, the data here is from patent US8969312B2.
